System: SW-620 colon
Assay: NCI tumour cell line growth inhibition, 48 h
quantity.name: TGI

Before answering, review these 3 worked examples.
molecule	TGI
Cc1ccc([N+](=O)[O-])c2c(NCCC[N+](C)(C)[O-])ccnc12	> 100 µM
COC1(Cc2ccccc2)C(=O)c2ccccc2N1C(C)=O (centres undefined)	> 100 µM
Nc1cc(-c2ccccc2)n(C(=O)Nc2ccc(Oc3ccccc3)cc2)n1	> 100 µM

stdin: Give me measured TGI, please, for this molecule: Nc1ccc(C2=Nc3ccccc3SC(c3ccccc3O)C2)cc1 (centres undefined)
stdout: > 100 µM

stdin: Fill in TGI for record `CC1=C(C(=O)Nc2ccccc2C)C(c2ccccc2C)C(C(=O)Nc2ccccc2C)=C(C)N1`
stdout: 36.2 µM

stdin: Provide one value: measured TGI of `O=c1[nH]nc(-c2ccccc2)c2c(-c3ccccc3)onc12`
stdout: > 100 µM

stdin: Tell us which TGI value is on record for `Cc1cc(C)nc(NS(=O)(=O)c2ccc(NC(=O)c3cccc4c(N)c5ccccc5nc34)cc2)n1`
stdout: > 100 µM

stdin: Identify the reported TGI for the following entry. CCCC(CCC)C(=O)OCC1(CO)C/C(=C\c2ccc(C(F)(F)F)cc2)C(=O)O1 (centres undefined)
stdout: 21.8 µM

stdin: Output TGI of `O=[N+]([O-])c1cc2c(ccc3occc32)o1`
stdout: > 100 µM

stdin: State its TGI: `CC(=O)Nc1nnc(S(=O)(=O)NC(=S)Nc2ccc(Cl)cc2)s1`
stdout: > 100 µM

stdin: Answer with the recorded TGI for the molecule listed here: `Nc1nc(NCCOCP(=O)(O)O)c(N)c(=O)[nH]1`
stdout: > 100 µM

stdin: Item `N#Cc1c(N2CCOCC2)ncn(-c2ccc(Cl)cc2)c1=O` : provide TGI
stdout: > 100 µM

stdin: Tell us which TGI value is on record for Cc1ccc(-n2cc(-c3ccc(Cl)cc3)c3c2N=CN2NC(c4cccs4)=NC32)cc1 (centres undefined)
stdout: > 100 µM

stdin: # return recorded TGI for input `Cc1cc(-c2ccc(C(=O)C(c3ccccc3)(c3ccccc3)c3ccccc3)[nH]2)on1`
stdout: 75 µM

stdin: Output TGI of `C/C(=N\NC(=S)Nc1ccc(Cl)cc1)c1nc2ncccc2[nH]1`
stdout: 35.5 µM

stdin: Annotate the molecule `O=C(O)CO/N=C1/C(c2c(O)[nH]c3ccccc23)=Nc2ccccc21` with its measured TGI.
stdout: > 100 µM

stdin: Give me measured TGI, please, for this molecule: COC(=O)CCC(C)[C@H]1CCC2C3C(C[C@H](OC(C)=O)[C@@]21C)[C@@]1(C)CCC2(C[C@H]1C[C@H]3OC(C)=O)OOC1(CCCCC1)OO2 (some centres undefined)
stdout: > 100 µM

stdin: Tell me measured TGI for `c1ccc(CSC(SCc2ccccc2)c2ccc3c(c2)OCO3)cc1` please.
stdout: > 10 µM

stdin: Query TGI for `NNC(=S)N/N=C(/C(=O)Nc1ccc([N+](=O)[O-])cc1)c1nc2ccc([N+](=O)[O-])cc2[nH]c1=O`
stdout: > 100 µM

stdin: Consider the molecule `COc1cc2nc(N3CCC[C@@H](NC4=CC(=O)c5ccccc5C4=O)C3)nc(N)c2cc1OC` . State its measured TGI.
stdout: 3.36 µM

* * *

Test system: SR leukemia
Test: NCI tumour cell line growth inhibition, 48 h
*1 amine or outer side, *2 acyl side, *3 side chain or, on linkers, in order; H or OH if unused. Where a SMILES comes first, the peptide text is derived from it. [ ]: non-standard residue; d: D form. The star is where a group is joined. X31 = CC(=O)N(C)SCC(N[*:1])C(=O)[*:2]; Fmoc = O=C(OCC1c2ccccc2-c2ccccc21)*; For = O=C*
Measured TGI of individual entries

Examples from the recorded data:
compound	TGI
C=C1C(=O)O[C@H]2[C@H]1CC/C(CNC(=O)/C=C/c1ccc(Cl)cc1Cl)=C\CC[C@@]1(C)O[C@@H]21	1.89 µM
CN(C)Cc1[nH]c2ccccc2c1C(=O)c1ccccc1	> 100 µM
CN1CCCC(C(=O)OCC(=O)C2(O)CCC3C4CCC5=CC(=O)CCC5(C)C4C(O)CC32C)C1 (centres undefined)	4.47 µM
O=C1NC(c2ccccc2)N=C2Oc3ccccc3C=C12 (centres undefined)	> 100 µM
CC(=O)N(C)SCC(NC(=O)C(Cc1ccccc1)NC(=O)OCC1c2ccccc2-c2ccccc21)C(=O)NC(Cc1ccccc1)C(=O)NC(Cc1cn(C=O)c2ccccc12)C(=O)NC(CCCCNC(=O)OCC1c2ccccc2-c2ccccc21)C(=O)NC(C(=O)NC(CSN(C)C(C)=O)C(=O)NC(C(N)=O)C(C)O)C(C)O (centres undefined) (Fmoc-F[X31]FW(For)K(Fmoc)T[X31]T-NH2; configuration not given here)	> 100 µM
CCc1c2c(nc3ccc(OCc4ccc(B5OC(C)(C)C(C)(C)O5)cc4)cc13)-c1cc3c(c(=O)n1C2)COC(=O)[C@]3(O)CC	> 100 µM
COC(=O)c1nc(N)nc(C(=O)OC)c1C(=O)c1ccccc1	> 100 µM
CC(C)=CCc1cc(C2COc3cc4c(c(O)c3C2=O)C=CC(C)(C)O4)c(O)cc1O (centres undefined)	24.1 µM
COC(=O)CCC(C)[C@H]1CCC2C3C(C[C@H](OC(C)=O)[C@@]21C)[C@@]1(C)CCC2(C[C@H]1C[C@H]3OC(C)=O)OOC1(CCCCC1)OO2 (some centres undefined)	> 100 µM
Oc1ccccc1-n1nc2ccc3nonc3c2n1	> 100 µM

stdin: Report the value of TGI obtained on SR leukemia for COC1(Cc2ccccc2)C(=O)c2ccccc2N1C(C)=O (centres undefined) .
stdout: > 100 µM

stdin: Provide SR leukemia TGI reading for `CC1=C(C)C(=O)C(C2=C(C3=CC(=O)C(C)=C(C)C3=O)C(=O)c3ccccc3C2=O)=CC1=O` .
stdout: 14.1 µM

stdin: System SR leukemia. Read-out TGI. Item `S=C(Nc1cccc(C2(N3CCCCC3)CCCCC2)c1)Nc1cccc(C2(N3CCCCC3)CCCCC2)c1` . Report value.
stdout: 31.6 µM

stdin: Recall the reported TGI of `Oc1ccc(Cn2c(-c3ccc(O)cc3)nc3ccccc32)cc1` on SR leukemia and write it down.
stdout: > 31.6 µM

stdin: Give TGI; test system SR leukemia; compound `COc1ccc2c(c1OC)C(=O)O[C@@H]2[C@H]1c2c(c(Br)c3c(c2OC)OCO3)CCN1C`
stdout: > 100 µM

stdin: Answer briefly: TGI recorded on SR leukemia for `Cc1cc(Cl)ccc1NC(=O)C(=O)Cc1occc(=O)c1O`
stdout: > 100 µM

stdin: Lab note: record TGI of `N#Cc1c(N2CCOCC2)ncn(-c2ccc(Cl)cc2)c1=O` tested on SR leukemia.
stdout: > 100 µM

stdin: Using SR leukemia as the test system, report measured TGI of `CN(C)C(=O)Oc1ccc(C(=S)Nc2ccccc2)cc1Br` .
stdout: 63.3 µM

stdin: Give TGI; test system SR leukemia; compound CCCC(CCC)C(=O)OCC1(CO)C/C(=C\c2ccc(C(F)(F)F)cc2)C(=O)O1 (centres undefined)
stdout: 31.1 µM

stdin: Name the recorded TGI of `c1ccc(/C(=N\Nc2ccc3ccccc3n2)c2ccccn2)cc1` , assay system SR leukemia.
stdout: 1.14 µM

stdin: Write down the reported TGI (system: SR leukemia) of `COc1cc2nc(N3CCC[C@@H](NC4=CC(=O)c5ccccc5C4=O)C3)nc(N)c2cc1OC`
stdout: 0.892 µM

Data provenance is PubChem BioAssay (NCI).
